- ASSAY_NAME: Plasma pharmacokinetics of II-38 and 2,4-DNP released from II-38
- Assay type: in vivo, Sprague-Dawley male rats
- EXPERIMENTAL_CONDITIONS: male, Sprague-Dawley, rat, in vivo, iv, 1.6 mg/kg, single i.v. injection of II-38 1.6 mg/kg (eq. to 1 mg/kg 2,4-DNP), n = 2
READOUT_KIND: Cmax (ng/mL)
Numeric only. Scale: ng/mL

Item under review: O=C(Oc1ccc([N+](=O)[O-])cc1[N+](=O)[O-])N1CCOCC1 [II-38] . Reported Cmax? 900

---

- ASSAY_NAME: Plasma pharmacokinetics of 2,4-DNP, i.v. and oral
- Assay type: in vivo, Sprague-Dawley male rats
- EXPERIMENTAL_CONDITIONS: male, Sprague-Dawley, rat, plasma; 2,4-DNP single oral dose 5 mg/kg, n = 4
READOUT_KIND: bioavailability (%)
Numeric only. Scale: %

Item under review: O=[N+]([O-])c1ccc(O)c([N+](=O)[O-])c1 [2,4-DNP, 2,4-dinitrophenol] . Reported bioavailability? 65.8

Values compiled from patent US11406642B2.
